test system: Hepatotoxicity; assay: FDA HLAED, serum glutamic pyruvic transaminase (SGPT) increase; conditions: human
metric-name: SGPT Increase - Number of Reports

1. CC[C@H]1OC(=O)[C@H](C)[C@@H](O[C@H]2C[C@@](C)(OC)[C@@H](O)[C@H](C)O2)[C@H](C)[C@@H](O[C@@H]2O[C@H](C)C[C@H](N(C)C)[C@H]2O)[C@](C)(O)C[C@@H](C)C(=O)[C@H](C)[C@@H](O)[C@]1(C)O
>= 4
2. CCCCCCC(C)(C)c1cc(O)c2c(c1)OC(C)(C)C1CCC(=O)CC21 (configuration not stated)
< 4
3. CC(C)(C)NC[C@H](O)COc1cccc2c1CCCC2=O
< 4
4. C[C@@H]1O[C@@H]1P(=O)(O)O
< 4
5. C[C@H]1C[C@H]2[C@@H]3C[C@H](F)C4=CC(=O)C=C[C@]4(C)[C@@]3(F)[C@@H](O)C[C@]2(C)[C@@]1(O)C(=O)CCl
< 4
6. CC(C)c1cccc(C(C)C)c1O
>= 4
7. CC(C)c1ccc2oc3nc(N)c(C(=O)O)cc3c(=O)c2c1
< 4

---

system: Hepatotoxicity; assay: FDA HLAED, lactate dehydrogenase (LDH) increase; conditions: human
metric-name: LDH Increase - Activity Score

1. C[C@](N)(Cc1ccc(O)cc1)C(=O)O
Inactive
2. COC(=O)C1=C(C)NC(C)=C(C(=O)OC(C)C)C1c1cccc2nonc12 (centres undefined)
Inactive
3. CCN[C@H]1C[C@H](C)S(=O)(=O)c2sc(S(N)(=O)=O)cc21 [DORZOLAMIDE]
Inactive

---

tested on: Hepatotoxicity; experiment: FDA HLAED, lactate dehydrogenase (LDH) increase; conditions: human
metric-name: LDH Increase - Index Value

1. C[C@@]12CCCCC[C@@H](Cc3ccc(O)cc31)[C@@H]2N [DEZOCINE]
0
2. Nc1nc(Cl)nc2c1ncn2[C@H]1C[C@H](O)[C@@H](CO)O1 [CLADRIBINE]
0
3. CC(O)(CS(=O)(=O)c1ccc(F)cc1)C(=O)Nc1ccc(C#N)c(C(F)(F)F)c1 (configuration not stated) [BICALUTAMIDE]
5.1
4. CC(=O)OCC(CCn1cnc2cnc(N)nc21)COC(C)=O [FAMCICLOVIR]
0
5. CN[C@H]1CC[C@@H](c2ccc(Cl)c(Cl)c2)c2ccccc21 [SERTRALINE]
0.9
6. COCC1=C(C(=O)OC(C)OC(=O)OC(C)C)N2C(=O)[C@@H](NC(=O)/C(=N\OC)c3csc(N)n3)[C@H]2SC1 (some centres not stated) [CEFPODOXIME PROXETIL]
0.2
7. COc1cc(NCc2ccc3nc(N)nc(N)c3c2C)cc(OC)c1OC [TRIMETREXATE]
38.8
8. Cc1c(OCC(F)(F)F)ccnc1C[S+]([O-])c1nc2ccccc2[nH]1 (configuration not stated) [LANSOPRAZOLE]
0.5
9. COc1cc2nc(N3CCN(C(=O)C4CCCO4)CC3)nc(N)c2cc1OC (configuration not stated) [TERAZOSIN]
0.5
10. NC(N)=Nc1nc(CSCCC(N)=NS(N)(=O)=O)cs1 [FAMOTIDINE]
0.4
11. CCOC(=O)c1cncn1[C@H](C)c1ccccc1 [ETOMIDATE]
0
12. O=C1c2c(O)ccc(O)c2C(=O)c2c(NCCNCCO)ccc(NCCNCCO)c21 [MITOXANTRONE]
0
13. C[C@]12CC[C@H]3[C@@H](CCC4=CC(=O)CC[C@@]43C)[C@@H]1CC[C@@H]2OC(=O)CCC1CCCC1 [TESTOSTERONE CYPIONATE]
2.4
14. CC(=O)OCC1=C(C(=O)O)N2C(=O)[C@@H](NC(=O)CSc3ccncc3)[C@H]2SC1 [CEPHAPIRIN]
0
15. CC[C@H]1OC(=O)[C@H](C)[C@@H](O[C@H]2C[C@@](C)(OC)[C@@H](O)[C@H](C)O2)[C@H](C)[C@@H](O[C@@H]2O[C@H](C)C[C@H](N(C)C)[C@H]2O)[C@](C)(O)C[C@@H](C)[C@@H]2N[C@@H](COCCOC)O[C@H]([C@H]2C)[C@]1(C)O [DIRITHROMYCIN]
0
16. Cc1nccn1CC1CCc2c(c3ccccc3n2C)C1=O (configuration not stated) [ONDANSETRON]
0.9
17. NCCNCCNCCN [TRIENTINE]
0
18. CCn1nc(C(=O)O)c(=O)c2cc3c(cc21)OCO3 [CINOXACIN]
0
19. CCOC(=O)N1CCC(=C2c3ccc(Cl)cc3CCc3cccnc32)CC1 [LORATADINE]
0.2
20. C[C@@H](CN1CC(=O)NC(=O)C1)N1CC(=O)NC(=O)C1 [DEXRAZOXANE]
0
21. CN(Cc1ccc(C(C)(C)C)cc1)Cc1cccc2ccccc12 [BUTENAFINE]
0
22. CC(C)[C@H](N)C(=O)OCCOCn1cnc2c(=O)[nH]c(N)nc21 [VALACYCLOVIR]
0
23. CCC(C)n1ncn(-c2ccc(N3CCN(c4ccc(OCC5COC(Cn6cncn6)(c6ccc(Cl)cc6Cl)O5)cc4)CC3)cc2)c1=O (configuration not stated) [ITRACONAZOLE]
5.8
24. CO/N=C(\C(=O)N[C@@H]1C(=O)N2C(C(=O)O)=CCS[C@H]12)c1csc(N)n1 [CEFTIZOXIME]
0.3
25. Nc1ncnc2c1ncn2[C@@H]1O[C@H](CO)[C@@H](O)[C@H]1O [ADENOSINE]
0
26. Cn1c(=O)c2[nH]cnc2n(C)c1=O.O [THEOPHYLLINE]
0
27. C[C@H]1O[C@H](O[C@H]2[C@H](O)[C@@H](O)[C@@H](O[C@H]3[C@H](O)[C@@H](O)C(O)O[C@@H]3CO)O[C@@H]2CO)[C@H](O)[C@@H](O)[C@@H]1N[C@H]1C=C(CO)[C@@H](O)[C@H](O)[C@H]1O (some centres not stated) [ACARBOSE]
2.6
